Form field: KRas G12D mutant + SOS: % inh. (one value per entry).
system: KRas G12D mutant; assay: Ras GTP Binding Domain Inhibition Assay, KRas G12D mutant; conditions: at 20 μM; with SOS; Table 7

Take a look at these entries with their results.
COCCCCn1c(-c2nccn2C)nc2sc(-c3ccn(C(C)C)n3)c(C)c2c1=O :: 0 (0 = 0% inhibition)
COCCCn1c(-c2nccn2C)nc2sc(-c3ccn(C(C)C)n3)c(C)c2c1=O :: 0 (0 = 0% inhibition)

Qu. Requested read-out: KRas G12D mutant + SOS: % inh.. Entry: "COCCCCOc1nc(-c2nccn2C)nc2sc(-c3ccn(C(C)C)n3)c(C)c12"
Ans. 0 (0 = 0% inhibition)
